# system: T1, AAV9 (adeno-associated virus 9, Assembled 60-mer capsid of VP1/VP2/VP3 (nested products of one cap gene), amine-coupled to a CM5 chip; the letters give one VP1 subunit only.)
# T1 construct: also called adeno-associated virus serotype 9
# test_name: SPR, AAV amine-coupled to CM5 chip
metric: kon (M⁻¹ s⁻¹)
# value in M⁻¹ s⁻¹; strip the unit string

binder | kon (M⁻¹ s⁻¹)
A4-C8 (bispecific antibody) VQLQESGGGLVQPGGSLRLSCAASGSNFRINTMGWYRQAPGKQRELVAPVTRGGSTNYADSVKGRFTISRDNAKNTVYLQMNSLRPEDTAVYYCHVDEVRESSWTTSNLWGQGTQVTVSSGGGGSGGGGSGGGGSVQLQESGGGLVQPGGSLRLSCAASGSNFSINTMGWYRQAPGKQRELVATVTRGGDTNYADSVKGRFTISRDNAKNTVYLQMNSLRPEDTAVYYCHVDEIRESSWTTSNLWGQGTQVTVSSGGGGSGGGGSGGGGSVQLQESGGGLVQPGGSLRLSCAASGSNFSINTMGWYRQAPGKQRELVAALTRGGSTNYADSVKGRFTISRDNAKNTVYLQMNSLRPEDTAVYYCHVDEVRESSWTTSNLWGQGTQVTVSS | 179000

Note: attention shifts to another entry.
q: Please give the documented kon of A4-C9 (bispecific antibody) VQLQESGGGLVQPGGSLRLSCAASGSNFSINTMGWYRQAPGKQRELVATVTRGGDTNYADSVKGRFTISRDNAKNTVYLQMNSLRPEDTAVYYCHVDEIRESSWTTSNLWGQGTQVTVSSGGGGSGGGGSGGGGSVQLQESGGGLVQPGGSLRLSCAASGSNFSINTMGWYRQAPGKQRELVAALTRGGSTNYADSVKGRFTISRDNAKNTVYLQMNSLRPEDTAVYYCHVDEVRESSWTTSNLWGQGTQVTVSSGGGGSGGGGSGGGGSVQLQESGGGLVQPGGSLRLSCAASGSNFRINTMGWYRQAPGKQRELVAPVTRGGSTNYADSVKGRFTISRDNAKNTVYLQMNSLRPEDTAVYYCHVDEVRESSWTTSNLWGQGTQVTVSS
a: 194000
